Molecular target: Rabbit muscle glycogen phosphorylase a (Oryctolagus cuniculus, UniProt P00489)
Sequence (P00489 2-843 limits assumed): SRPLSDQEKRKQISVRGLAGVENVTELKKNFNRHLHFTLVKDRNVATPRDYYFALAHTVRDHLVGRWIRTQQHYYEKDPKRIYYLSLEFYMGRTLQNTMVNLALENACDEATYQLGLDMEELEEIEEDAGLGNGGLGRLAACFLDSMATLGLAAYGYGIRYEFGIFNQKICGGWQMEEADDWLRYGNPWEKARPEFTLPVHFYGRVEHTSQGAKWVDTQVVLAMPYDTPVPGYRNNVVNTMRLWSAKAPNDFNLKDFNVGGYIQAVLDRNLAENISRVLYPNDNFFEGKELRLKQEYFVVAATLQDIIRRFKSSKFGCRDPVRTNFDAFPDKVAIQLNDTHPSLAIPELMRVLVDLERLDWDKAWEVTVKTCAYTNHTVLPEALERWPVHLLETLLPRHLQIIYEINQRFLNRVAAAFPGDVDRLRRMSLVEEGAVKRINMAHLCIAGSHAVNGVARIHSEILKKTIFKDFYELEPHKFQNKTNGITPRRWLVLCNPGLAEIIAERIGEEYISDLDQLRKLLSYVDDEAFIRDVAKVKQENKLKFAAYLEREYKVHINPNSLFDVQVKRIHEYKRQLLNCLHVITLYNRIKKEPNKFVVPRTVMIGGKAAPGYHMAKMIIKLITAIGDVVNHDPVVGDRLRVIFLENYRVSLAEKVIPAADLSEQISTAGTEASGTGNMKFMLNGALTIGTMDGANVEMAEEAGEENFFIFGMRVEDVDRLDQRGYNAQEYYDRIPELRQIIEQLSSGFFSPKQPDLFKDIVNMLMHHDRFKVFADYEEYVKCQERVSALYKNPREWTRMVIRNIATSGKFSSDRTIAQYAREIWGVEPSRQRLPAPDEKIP
pIC50: −log10 of the molar value.
Readout: pIC50

Q: Data request, read-out pIC50, for "O=C(N[C@@H](Cc1ccc(F)cc1)C(=O)N1CCC(O)CC1)c1cc2cc(Cl)ncc2[nH]1"
Result: > 3.00
